The reported numbers originate from patent US12590091B2.

Measured IC50, listed per entry.
TARGET UNDER TEST: human TLR9 (Homo sapiens, UniProt Q9NR96)
Sequence (Q9NR96 26-1032): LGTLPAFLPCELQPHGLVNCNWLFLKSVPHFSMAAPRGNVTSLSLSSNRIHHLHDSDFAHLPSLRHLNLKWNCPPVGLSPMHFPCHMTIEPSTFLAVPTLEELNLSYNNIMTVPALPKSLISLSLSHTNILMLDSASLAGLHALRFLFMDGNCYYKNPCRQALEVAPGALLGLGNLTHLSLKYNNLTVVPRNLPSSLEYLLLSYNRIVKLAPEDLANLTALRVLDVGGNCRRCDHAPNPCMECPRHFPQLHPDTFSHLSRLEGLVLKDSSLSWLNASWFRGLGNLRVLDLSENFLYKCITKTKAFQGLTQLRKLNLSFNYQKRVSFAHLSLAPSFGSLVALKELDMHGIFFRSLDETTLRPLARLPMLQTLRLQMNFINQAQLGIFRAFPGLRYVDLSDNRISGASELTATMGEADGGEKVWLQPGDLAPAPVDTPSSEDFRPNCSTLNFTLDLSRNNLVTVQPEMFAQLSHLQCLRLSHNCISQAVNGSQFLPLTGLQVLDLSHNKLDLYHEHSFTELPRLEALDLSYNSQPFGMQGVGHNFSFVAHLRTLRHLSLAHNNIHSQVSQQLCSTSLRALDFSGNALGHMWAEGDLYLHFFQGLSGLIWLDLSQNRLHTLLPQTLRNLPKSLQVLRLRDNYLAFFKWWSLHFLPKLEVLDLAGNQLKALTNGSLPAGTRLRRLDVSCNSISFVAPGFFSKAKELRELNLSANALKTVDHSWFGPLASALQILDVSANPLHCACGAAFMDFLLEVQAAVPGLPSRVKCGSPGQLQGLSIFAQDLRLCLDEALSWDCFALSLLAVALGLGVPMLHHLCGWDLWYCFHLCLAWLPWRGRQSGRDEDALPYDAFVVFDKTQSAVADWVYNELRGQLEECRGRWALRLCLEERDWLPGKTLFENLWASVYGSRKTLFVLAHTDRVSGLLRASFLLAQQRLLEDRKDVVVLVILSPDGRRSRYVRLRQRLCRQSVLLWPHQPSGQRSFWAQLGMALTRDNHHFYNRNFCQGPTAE
PROTOCOL: TLR9 inhibition reporter assay (HEK-Blue cells, SEAP reporter)
CONDITION CONTEXT: HEK-Blue cells overexpressing human TLR9, stimulated with ODN2006 5 nM, 22 hour incubation

Known IC50 results, listed for orientation:
Prompt line: Quick one: IC50 of CC(C)(O)CCN1CCN(Cc2ccc(-c3cc4c(cn3)cc(-c3ccc(S(C)(=O)=O)cc3)n4C3CC3)cc2)CC1 [Example 129] ?
Response line: 118 nM

Prompt line: Would you kindly repeat that for Cc1nc(-c2ccc(CN3CCN(CCC(C)(C)O)CC3)cc2)cc2c1c(F)c(-c1ccc(S(C)(=O)=O)cc1)n2C [Example 115] ?
Response line: 615 nM

Prompt line: What about this compound? CC(C)(O)CN1CC2CCC(C1)N2Cc1ccc(-c2cc3c(cn2)cc(-c2ccc(S(C)(=O)=O)cc2)n3C2CC2)cc1 [Example 130]
Response line: 92 nM

Next:
Prompt line: Tell me the measured IC50 of Cc1nc(-c2ccc(CN3CCN(CC(C)(C)O)CC3)cc2)cc2c1cc(-c1ccc(S(C)(=O)=O)cc1)n2C1CC1 [Example 123] , please.
Response line: 85 nM
